Tested on: NCI-H460 lung
Assay: NCI-60 one-dose screen, 48 h (100 = growth as untreated, 0 = no growth, -100 = all killed)
Details: 10 µM unless noted
Description: Growth inhibition of the NCI-H460 human Non-Small Cell Lung tumor cell line is measured as a screen for anti-cancer activity. Cells are grown in 96 well plates and exposed to the test compound for 48 hours. Compounds are tested at a single concentration, which is 10^-5 M for most compounds. The reported endpoint is percent growth (GI% or GIPRCNT), where numbers from 0 - 100% represent growth inhibition, and numbers from -100% - 0 represent cell death. […]
About 83,000 compounds went through this panel and 20% of them were active in at least one assay; those are over-represented in the sample as a whole.
// returns Not met unless growth is strictly below 40%, in which case Met

Challenge: Check if growth falls below 40% for CCN1C(=O)N(CC)C2C1NC(=S)N2/N=C/C=C/c1ccccc1 (centres undefined) .
Response given: Met

Challenge: # strict comparison: is reported growth < 40%? input = O=C1/C(=C/c2cccc([N+](=O)[O-])c2)COc2ccc(O)c(O)c21
Response given: Met

Challenge: A record lists O=C1N/C(=N/N=C(c2ccccc2)c2ccccc2)S/C1=C\c1ccc(Br)cc1 . Is its growth below 40%?
Response given: Not met

Challenge: Criterion: growth strictly below 40%. Is it met by O=[N+]([O-])c1ccc(Oc2cccc3c(Oc4ccc([N+](=O)[O-])cc4[N+](=O)[O-])cccc23)c([N+](=O)[O-])c1 ?
Response given: Not met

Challenge: Quick check: growth of O=C(O)/C=C/c1cn(-c2ccccc2)nc1-c1ccc(F)cc1 under 40%?
Response given: Not met

Challenge: Identify whether the compound CC(=O)CC(=O)c1ccccc1.[Cu+2] records growth below 40%.
Response given: Not met

Challenge: is_below(growth, 40%) for CN(C)C(=O)OCc1ccc2c(Cl)cc(Cl)c(O)c2n1 ?
Response given: Met

Challenge: For this compound, is growth lower than 40%? O=c1ccc2c(ccc3ncccc32)o1
Response given: Not met
